Protocol Text: in vivo
Applied Conditions: female, C57BL/6, mouse, in vivo, ip
Would you mind telling me the reported MTD at 2 weeks of each entry?
Answers are plain numbers, in mg/kg.

>  <Molecule>
Cc1c(CN(C)C(=O)/C=C/c2cnc3c(c2)CC(N)C(=O)N3)oc2ccccc12.Cl (centres unmarked) [Debio-1452-NH3, reference compound]

>  <Measure Unit>
mg/kg

>  <MTD at 2 weeks>
50

$$$$

We now examine a further molecule.
Query string: Using the record for Cc1c(CN(C)C(=O)/C=C/c2cnc3c(c2)CC(CCN)C(=O)N3)oc2ccccc12.Cl (centres unmarked) [Compound 3] , report its MTD at 2 weeks.
Result string: 100

====

Protocol Text: in vitro
Applied Conditions: dog, MDCK-MDR1, MDR1-MDCK Permeability Papp A:B
Property Name: Papp (×10⁻⁶ cm/s)
Numbers only, in ×10⁻⁶ cm/s.

Query string: Using the record for Cc1c(CN(C)C(=O)/C=C/c2cnc3c(c2)CC[C@H](N)C(=O)N3)oc2ccccc12 [(S)-11] , report its Papp.
Result string: 0.6

====

Would you mind telling me the reported MIC A. baumannii AR 0313 of each entry?
System: A. baumannii AR 0313
Protocol Text: microbe, parasite or virus in culture
Format: cell-based
Applied Conditions: clinical isolate
Method: Antimicrobial susceptibility tests. Susceptibility testing was performed in biological triplicate, using the micro-dilution broth method as outlined by the Clinical and Laboratory Standards Institute. Bacteria were cultured with cation-adjusted Muller-Hinton broth (Sigma-Aldrich, Cat# 90922) in round-bottom 96-well plates (Corning, Cat# 3788). Human serum (pooled gender, 0.2 μm filtered) was purchased from BioIVT (Hicksville, NY).

// below: answered molecules
>  <Molecule>
Cc1c(CN(C)C(=O)/C=C/c2cnc3c(c2)CC2(CC(CN)C2)C(=O)N3)oc2ccccc12 (stereo not drawn)

>  <Subject Of Test>
A. baumannii AR 0313

>  <Property Name>
MIC A. baumannii AR 0313

>  <Measured>
>32 µg/mL

$$$$
>  <Molecule>
Cc1c(CN(C)C(=O)/C=C/c2ccc3c(c2)CCC(N)C(=O)N3)oc2ccccc12 (single isomer, unassigned) [Isomer 1]

>  <Subject Of Test>
A. baumannii AR 0313

>  <Property Name>
MIC A. baumannii AR 0313

>  <Measured>
>32 µg/mL

$$$$

Query string: Using the record for Cc1c(CN(C)C(=O)/C=C/c2cnc3c(c2)CCC(CN)C(=O)N3)oc2ccccc12 (racemic) [(±)-12] , report its MIC A. baumannii AR 0313.
Result string: >32 µg/mL
